# Subject Of Test: T1, recombinant IL-3Rα ectodomain (human, UniProt P26951 19-305)
# T1 construct: extracellular domain; also called recombinant IL-3Ra; biotinylated-IL-3Rα ectodomain
# T1 sequence (looked up): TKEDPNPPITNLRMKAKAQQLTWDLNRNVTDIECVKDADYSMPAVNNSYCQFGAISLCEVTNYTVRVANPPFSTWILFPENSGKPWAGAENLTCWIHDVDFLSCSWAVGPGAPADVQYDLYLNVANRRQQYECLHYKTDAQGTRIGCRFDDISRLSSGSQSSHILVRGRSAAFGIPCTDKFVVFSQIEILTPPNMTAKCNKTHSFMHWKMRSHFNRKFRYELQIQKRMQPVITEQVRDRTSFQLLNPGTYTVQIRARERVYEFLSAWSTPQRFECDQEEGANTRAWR
# Experimental Details: SPR ProteOn, immobilised IL-3Rα ectodomain
Outcome Measure: pKd
One number for each entry, as −log10 of the molar value.

Look over these answered cases.
- Binder: "57A07 (VHH, also called CD123#1; A0110057A07) VHH: EVQLVESGGGLVQAGGSLRLSCAASGSIFSGNVMGWYRRQAPGKEREWVAAIASGGSIYYRDSVKGRFTISRDNAKNTVYLQMNSLKPEDTAVYYCNSHPPTLPYWGLGTQVTVSS"
  pKd: 9.11
- Binder: "55A01 (VHH, also called CD123#2; A0110055A01) VHH: EVQLVESGGGSVQAGGSLRLSCTTSGRALNMYVMGWFRQAPGNEREFVAATSSSGGSTSYPDSVKGRFTISRDNAKNTVYLQMNSLKPEDTAAYRCAASPYVSTPTMNILEEYRYWGLGTQVTVSS"
  pKd: 7.77

# per-item lookup of pKd; items listed below
1. 50F07 (VHH) VHH: EVQLVESGGGLVQPGGSLRLSCTGSGSTFSINAMGWYRQAPGKQRELVAAITSGGRTNYADSVKGRFTISRDNSKNTVYLQMNSLRPEDTAVYYCNARISAGTAFWLWSDYEYWGLGTLVTVSS
2. 55C05 (VHH) VHH: EVQLVESGGGLVPAGDSLRLSCVASGRSLNTYTMGWFRQAPGKECEFVAAINWNGVYRDYADSAKGRFTASRDNAMNTVFLQMNSLKPEDTAVYFCATATQGWDRHTEPSDFGSWGLGTQVTVSS

Response line:
[7.13, 7.23]

Source listed as patent US20160251440A1.
